Values from the OligoGym collection

- STUDY_TARGET: IKBKAP
- TEST_DESCRIPTION: pooled miR-30 sensor sort-seq; sequence = guide strand
- COND: shRNA
Provide the reported sensor-assay potency score (higher = more potent) of each item.

TTGAATATCCCTGAACTCCAGG    -0.562
TCTTCGTGACATCTTCTTCTTT    -0.422
TATTTGTCTATAGTAAACCGCT    -0.467
TTGCAGTAGAATTGGGACCTAG    -0.443

Need sensor-assay potency score (higher = more potent) for each of these sequences.
1. TATAACTTCAGAGCTTCGTTAT
2. TTTGTCTATAGTAAACCGCTGA
3. TTGTCTATAGTAAACCGCTGAT
4. TAATTCATTAACATCTACCAGA
5. TAGCATCGCAGACAAGGTCTAT
6. TTCTGAACCAATGAGCACCGTC

OUTPUT:
1: -0.855; 2: -0.157; 3: -0.619; 4: -0.538; 5: -0.408; 6: -0.483

----------
- STUDY_TARGET: KCNK12
- TEST_DESCRIPTION: pooled miR-30 sensor sort-seq; sequence = guide strand
- COND: shRNA
ASSAY_ENDPOINT: sensor-assay potency score (higher = more potent)
One number for each entry.

Use these answered entries as a reference point.
TTGAGCACCTGCTTGATGAGGA    0.236
TACATGGCCGAGGCGCAGCAGG    -1.41
TTGAGGTGCGAACGGCGGCAGC    -1.57
TTGTTCATGATGCCCAGCGCGC    -1.54
TTGAAGAACAGGATGGTCCCAG    0.312

INPUT: What value of sensor-assay potency score (higher = more potent) has been reported for the following sequence? `AAGAGGTTGAAGAACAGGATGG`
OUTPUT: -0.732

----------
- STUDY_TARGET: ATP8A2
- TEST_DESCRIPTION: pooled miR-30 sensor sort-seq; sequence = guide strand
- COND: shRNA
ASSAY_ENDPOINT: sensor-assay potency score (higher = more potent)
One number for each entry.

Use these answered entries as a reference point.
TAATACATATCTGTGTCCCAGT    -0.374
TTGAGTATACTTCACAACCTCA    -0.741
TTTGTCTCCTGTCAACACCCAT    -1.17
TTAAAGTTCATGATATTGCATG    -0.75
TTCCTGACTAACAGCTCCGTGT    -0.616
TCAATGTTCTTCAACAGCCTGG    -0.00859

INPUT: What value of sensor-assay potency score (higher = more potent) has been reported for the following sequence? `TTGTCTCCTGTCAACACCCATA`
OUTPUT: -1.33

----------
- STUDY_TARGET: NUP54
- TEST_DESCRIPTION: pooled miR-30 sensor sort-seq; sequence = guide strand
- COND: shRNA
ASSAY_ENDPOINT: sensor-assay potency score (higher = more potent)

TAAACCAGTACTAGTTCCCGTT    -0.284
TTATATCTTCTAGATCGTCTTT    -0.236
TTGTTGTTTCAAATGCTGCTTG    0.0156
TAACAGATCTGCATCTATGTAA    0.386

Note: attention shifts to another entry.
INPUT: What value of sensor-assay potency score (higher = more potent) has been reported for the following sequence? `TATATCTTCTAGATCGTCTTTA`
OUTPUT: 0.519
